Recorded values, source patent US20250052751A1.

# measuredOn: T1, MHC class II I-A^b molecules purified by affinity chromatography (;mouse, UniProt P14434 24-218; P14483 28-226)
# T1 MHC II alpha: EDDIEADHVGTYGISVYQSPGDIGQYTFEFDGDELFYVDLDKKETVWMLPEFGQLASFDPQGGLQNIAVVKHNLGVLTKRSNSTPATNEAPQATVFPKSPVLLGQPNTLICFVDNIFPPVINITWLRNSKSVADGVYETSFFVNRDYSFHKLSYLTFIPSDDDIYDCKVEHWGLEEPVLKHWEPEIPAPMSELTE
# T1 MHC II beta: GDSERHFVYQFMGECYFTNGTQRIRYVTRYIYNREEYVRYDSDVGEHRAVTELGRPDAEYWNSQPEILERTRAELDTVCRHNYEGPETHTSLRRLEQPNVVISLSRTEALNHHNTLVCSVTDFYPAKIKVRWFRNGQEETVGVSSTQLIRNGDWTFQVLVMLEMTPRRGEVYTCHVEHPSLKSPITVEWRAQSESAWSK
# assayDetails: competitive peptide binding assay on purified I-Ab
quantityMeasured: IC50 (nM)
Numeric only. Scale: nM

Take a look at these entries with their results.
VAFKGVWTQAFW [AQP4 p24-35] = 4880
GILYLVTPPSVVGGLGVTMV [AQP4 131-150] = 112
LFAINYTGASMNPARSF [AQP4 p202-218] = 16
HLFAINYTGASMNPARSFGP [AQP4 201-220] = 28

Kindly consider the entry below.
Kindly note the recorded IC50 for LYLVTPPSVVGGLGVT [AQP4 p133-149] , which is 184
